GI50 for assorted compounds
System: Malme-3M
Experiment: NCI tumour cell line growth inhibition, 48 h
Activity calls are given as the source filed them. No stated cut-off is given here; in the data, active = GI50 up to about 1.1 µM and inactive = higher. Where a SMILES comes first, the peptide text is derived from it. The star is where a group is joined. Boc = CC(C)(C)OC(=O)*

COc1ccc(OC(C(=O)O)c2ccccc2)c2c1CCCC2=O (stereo not drawn) : > 100 µM (inactive)
O=C(C[C@@H]1CCCN2CCCC[C@H]12)N1c2ccccc2Sc2ccc(Cl)cc21 : 16.2 µM (inactive)
CCC1(O)C(=O)OCc2c1cc1n(c2=O)Cc2cc3cc(OC)c(OC)cc3nc2-1 (stereo not drawn) : > 100 µM (inactive)
NS(=O)(=O)c1ccc(NC(=O)c2cccc3cc4ccccc4nc23)cc1 : 12.2 µM (inactive)
CC1(C)S[C@@H]2[C@H](N3C(=O)c4ccccc4C3=O)CN2[C@H]1NC(=O)N[C@@H]1N2C[C@@H](N3C(=O)c4ccccc4C3=O)[C@H]2SC1(C)C : > 100 µM (inactive)
COC(=O)C(Cc1c[nH]c2ccccc12)NC(=O)C(Cc1c[nH]c2ccccc12)NC(=O)C(Cc1c[nH]c2ccccc12)NC(=O)OC(C)(C)C (stereo not drawn) (Boc-Trp-Trp-Trp-OMe; configuration not given here) : > 100 µM (inactive)

Ask: Answer with the recorded GI50 for the compound listed here: C[C@H](CCC(=O)O)[C@H]1CC[C@H]2[C@@H]3[C@H](O)[C@H](O)[C@@H]4C[C@H](O)CC[C@]4(C)[C@H]3CC[C@]12C
Reply: > 100 µM (inactive)

Ask: Input CCOC(=O)C(NNS(=O)(=O)c1ccc(C)cc1)S(=O)(=O)C(F)(F)C(F)(F)C(F)(F)C(F)(F)F (stereo not drawn) , output reported GI50.
Reply: > 100 µM (inactive)

Ask: For the compound NC1=Nc2ccccc2Sc2nccn21 , give its measured GI50 value.
Reply: 17.2 µM (inactive)

Ask: Determine its reported GI50: CO[C@]12CC(=O)C3(C(C[C@H]4CC5CCC6=CC(=O)CC[C@]6(OC(C)=O)C5C[C@@]43C)C1)C1C[C@H]3[C@@H]4CCC5=CC(=O)CC[C@]5(OC(C)=O)[C@H]4CC[C@]3(C)C12 (stereo partly drawn)
Reply: > 100 µM (inactive)

Ask: Assign GI50 to the following record: c1ccc(-c2nc3ccccc3n3nnnc23)cc1
Reply: > 100 µM (inactive)

Ask: Output measured GI50 for this item: Nc1nc(Cl)c(CO)c(NCC2(CO)CCC2)n1
Reply: > 100 µM (inactive)

Ask: Annotate the compound O=C1NC(N2CCCC(CO)C2)=N/C1=C\c1ccccc1 (stereo not drawn) with its measured GI50.
Reply: > 100 µM (inactive)

----------
# reported GI50; entries follow
Test system: MCF7
Assay: NCI tumour cell line growth inhibition, 48 h
Activity calls are given as the source filed them. Rule as the data show it: active = GI50 up to about 1.1 µM and inactive = higher.

Oc1ccc(Cl)cc1-c1cc(-c2ccccc2)nc(S)n1 : > 100 µM (inactive)
COc1cc(S(=O)(=O)N/N=C/C=C/c2ccccc2)c(OC)cc1NC(C)=O : 52.2 µM (inactive)

Ask: Output GI50 of CC1(C)S[C@@H]2[C@H](N3C(=O)c4ccccc4C3=O)CN2[C@H]1NC(=O)N[C@@H]1N2C[C@@H](N3C(=O)c4ccccc4C3=O)[C@H]2SC1(C)C
Reply: > 100 µM (inactive)

Hey, just so you know, these numbers are from ChEMBL document CHEMBL1201862.
